Task for the reader: assign each of the following compounds its reported inhibition at 2 µM.
Target: CYP3A4 (Homo sapiens, UniProt P08684)
Sequence (P08684 2-503): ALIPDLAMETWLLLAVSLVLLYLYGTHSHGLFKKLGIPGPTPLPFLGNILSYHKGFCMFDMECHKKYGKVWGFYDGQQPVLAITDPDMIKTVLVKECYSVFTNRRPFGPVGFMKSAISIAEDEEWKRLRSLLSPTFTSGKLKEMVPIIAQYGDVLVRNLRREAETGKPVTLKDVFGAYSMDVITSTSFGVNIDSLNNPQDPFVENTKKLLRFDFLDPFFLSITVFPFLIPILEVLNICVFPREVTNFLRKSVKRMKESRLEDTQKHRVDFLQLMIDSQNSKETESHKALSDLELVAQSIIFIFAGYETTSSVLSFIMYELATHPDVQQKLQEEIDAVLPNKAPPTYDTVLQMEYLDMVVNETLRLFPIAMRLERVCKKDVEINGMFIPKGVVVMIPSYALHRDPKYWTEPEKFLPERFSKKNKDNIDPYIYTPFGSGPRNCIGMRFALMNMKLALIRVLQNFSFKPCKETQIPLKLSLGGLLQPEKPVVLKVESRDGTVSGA
Experiment: in vitro
Conditions: microsomes, pH 7.4

Below, 2 compounds whose answers are already recorded.
{"COMPOUND": "CNC(=O)O/N=C/C(C)(C)S(C)(=O)=O", "inhibition at 2 µM": "< 0%"}
{"COMPOUND": "O=C1Cc2cc(CCN3CCN(c4nsc5ccccc45)CC3)c(Cl)cc2N1 [Ziprasidone, ziprasidone, reference compound]", "inhibition at 2 µM": "22%"}

Please report inhibition at 2 µM for every entry that follows.
1. CNC(=O)O/N=C/C(C)(C)SC
2. CNC(=O)Oc1cc(C)c(SC)c(C)c1
3. CCC[S+]([O-])c1ccc2[nH]c(NC(=O)OC)nc2c1 (centres unmarked) [Albendazole sulfoxide, albendazole sulfoxide]
4. CC(C)(O)c1ccccc1CC[C@@H](SCC1(CC(=O)O)CC1)c1cccc(/C=C/c2ccc3ccc(Cl)cc3n2)c1 [Montelukast, montelukast, reference compound]
5. CNC(=O)O/N=C/C(C)(C)[S+](C)[O-] (centres unmarked) [Aldicarb sulfoxide, aldicarb sulfoxide]
6. CSc1nc2cc(Cl)c(Oc3cccc(Cl)c3Cl)cc2[nH]1 [Triclabendazole, reference compound]

# output
["< 0%", "< 0%", "< 0%", "20%", "< 0%", "< 0%"]

* * *

What % Metabolized at 30 min Incubation with Human Liver Fractions/Enzymes rCYP2D6 was measured for each of the following?
Target: rCYP2D6 (Homo sapiens, UniProt P10635)
Sequence (P10635 whole entry): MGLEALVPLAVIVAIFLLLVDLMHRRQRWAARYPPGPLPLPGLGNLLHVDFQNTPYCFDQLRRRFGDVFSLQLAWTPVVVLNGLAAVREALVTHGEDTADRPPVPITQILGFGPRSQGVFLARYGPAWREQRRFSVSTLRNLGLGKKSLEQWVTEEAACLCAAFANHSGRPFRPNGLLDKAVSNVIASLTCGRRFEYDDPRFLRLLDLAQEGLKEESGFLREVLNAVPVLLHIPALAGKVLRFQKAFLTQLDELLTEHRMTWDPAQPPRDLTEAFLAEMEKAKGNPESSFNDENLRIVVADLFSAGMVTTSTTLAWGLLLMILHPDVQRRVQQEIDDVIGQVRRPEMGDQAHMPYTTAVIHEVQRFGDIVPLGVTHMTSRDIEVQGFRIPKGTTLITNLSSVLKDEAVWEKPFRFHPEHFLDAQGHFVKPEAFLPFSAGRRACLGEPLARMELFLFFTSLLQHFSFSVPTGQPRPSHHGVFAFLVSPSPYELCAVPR
Test: Metabolic stability / reaction phenotyping with recombinant human CYP2D6
Settings: 1 µM test compound; 100 pmol/mL; 30 min
Numbers only, in %.

Examples with answers:
{"COMPOUND": "CNC(=O)Oc1cc(C)c(SC)c(C)c1", "UNIT STRING": "%", "MEASURED": 99.43}
{"COMPOUND": "CNC(=O)O/N=C/C(C)(C)[S+](C)[O-] (centres unmarked) [Aldicarb sulfoxide, aldicarb sulfoxide]", "UNIT STRING": "%", "MEASURED": 0.00}
{"COMPOUND": "COc1ccc2c(c1)[C@]13CCCC[C@@H]1[C@H](C2)N(C)CC3", "UNIT STRING": "%", "MEASURED": 99.81}
{"COMPOUND": "CCCSc1ccc2nc(NC(=O)OC)[nH]c2c1 [Albendazole, albendazole, reference compound]", "UNIT STRING": "%", "MEASURED": 64.92}

# input I'd like to know its % Metabolized at 30 min Incubation with Human Liver Fractions/Enzymes rCYP2D6. The compound in question is CNC(=O)O/N=C/C(C)(C)SC
# output 0.00

* * *

Molecular target: rCYP3A4 (Homo sapiens)
Sequence (P08684 whole entry): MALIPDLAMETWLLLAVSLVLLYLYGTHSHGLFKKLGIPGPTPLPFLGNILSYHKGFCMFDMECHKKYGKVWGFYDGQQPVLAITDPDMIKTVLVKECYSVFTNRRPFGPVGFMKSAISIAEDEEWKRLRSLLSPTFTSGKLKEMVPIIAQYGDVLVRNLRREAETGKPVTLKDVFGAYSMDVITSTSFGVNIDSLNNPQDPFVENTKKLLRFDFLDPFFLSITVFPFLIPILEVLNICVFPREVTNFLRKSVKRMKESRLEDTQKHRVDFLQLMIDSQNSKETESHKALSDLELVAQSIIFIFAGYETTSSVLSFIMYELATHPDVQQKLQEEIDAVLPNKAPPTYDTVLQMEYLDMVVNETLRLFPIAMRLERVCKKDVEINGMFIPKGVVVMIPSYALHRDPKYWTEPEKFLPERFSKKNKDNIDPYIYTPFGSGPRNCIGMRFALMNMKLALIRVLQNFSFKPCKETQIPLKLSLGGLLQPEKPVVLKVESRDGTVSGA
Conditions: 1 µM test compound; 100 pmol/mL; 30 min
MEASURED QUANTITY: % Metabolized at 30 min Incubation with Human Liver Fractions/Enzymes rCYP3A4 (%)
Give bare numbers, in %.

Previously resolved entries follow.
{"COMPOUND": "CSc1nc2cc(Cl)c(Oc3cccc(Cl)c3Cl)cc2[nH]1 [Triclabendazole, reference compound]", "MEASURED": 11.70}
{"COMPOUND": "CNC(=O)Oc1cc(C)c(SC)c(C)c1", "MEASURED": 98.38}
{"COMPOUND": "CNC(=O)O/N=C/C(C)(C)SC", "MEASURED": 0.00}

Let's switch to this compound now.
# input For the compound shown here, CNC(=O)O/N=C/C(C)(C)[S+](C)[O-] (stereo not shown) [Aldicarb sulfoxide, aldicarb sulfoxide] , give the reported % Metabolized at 30 min Incubation with Human Liver Fractions/Enzymes rCYP3A4.
# output 5.91

* * *

Test: Metabolic stability, incubation with human liver microsomes
Settings: 1 µM test compound, 0.5 mg/mL protein
MEASURED QUANTITY: % Metabolized at 30 min Incubation with Human Liver Fractions/Enzymes HLM

{"MOLECULE": "CSc1nc2cc(Cl)c(Oc3cccc(Cl)c3Cl)cc2[nH]1 [Triclabendazole, reference compound]", "MEASURED": "51.68%"}
{"MOLECULE": "O=C1Cc2cc(CCN3CCN(c4nsc5ccccc45)CC3)c(Cl)cc2N1 [Ziprasidone, ziprasidone, reference compound]", "MEASURED": "83.11%"}
{"MOLECULE": "CNC(=O)O/N=C/C(C)(C)SC", "MEASURED": "13.41%"}
{"MOLECULE": "CNC(=O)Oc1cc(C)c(SC)c(C)c1", "MEASURED": "78.39%"}
{"MOLECULE": "CNC(=O)O/N=C/C(C)(C)[S+](C)[O-] (centres unmarked) [Aldicarb sulfoxide, aldicarb sulfoxide]", "MEASURED": "21.18%"}

List reported % Metabolized at 30 min Incubation with Human Liver Fractions/Enzymes HLM for each of these molecules:
1. CCC[S+]([O-])c1ccc2[nH]c(NC(=O)OC)nc2c1 (centres unmarked) [Albendazole sulfoxide, albendazole sulfoxide]
2. C[C@]12CC[C@H]3[C@@H](CCC4=CC(=O)CC[C@@]43C)[C@@H]1CC[C@@H]2O [Testosterone, testosterone, reference compound]
3. CN(C)CCCOc1nn(Cc2ccccc2)c2ccccc12 [Benzydamine, reference compound]
4. CNC(=O)O/N=C/C(C)(C)S(C)(=O)=O
5. CC(C)(O)c1ccccc1CC[C@@H](SCC1(CC(=O)O)CC1)c1cccc(/C=C/c2ccc3ccc(Cl)cc3n2)c1 [Montelukast, montelukast, reference compound]
6. CCCSc1ccc2nc(NC(=O)OC)[nH]c2c1 [Albendazole, albendazole, reference compound]

# output
1: 4.23%; 2: 90.74%; 3: 16.45%; 4: 1.05%; 5: 25.71%; 6: 50.06%

* * *

Target: rCYP1A2 (Homo sapiens)
Sequence (P05177 1-516): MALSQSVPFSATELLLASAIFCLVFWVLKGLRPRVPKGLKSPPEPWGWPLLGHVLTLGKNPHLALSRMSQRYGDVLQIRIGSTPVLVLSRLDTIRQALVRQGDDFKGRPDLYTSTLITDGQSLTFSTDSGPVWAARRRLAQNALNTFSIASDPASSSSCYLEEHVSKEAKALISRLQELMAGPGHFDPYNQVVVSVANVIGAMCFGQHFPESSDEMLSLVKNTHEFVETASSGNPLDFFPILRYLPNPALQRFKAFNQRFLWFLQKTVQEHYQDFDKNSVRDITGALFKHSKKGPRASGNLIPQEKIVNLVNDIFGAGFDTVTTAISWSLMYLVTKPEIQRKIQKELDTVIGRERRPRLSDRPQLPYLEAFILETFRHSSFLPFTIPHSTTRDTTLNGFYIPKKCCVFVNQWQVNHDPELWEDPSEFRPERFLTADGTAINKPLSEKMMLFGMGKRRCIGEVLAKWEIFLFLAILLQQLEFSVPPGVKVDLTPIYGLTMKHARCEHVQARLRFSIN
Test: Metabolic stability / reaction phenotyping with recombinant human CYP1A2
Details: 1 µM test compound; 100 pmol/mL; 30 min
MEASURED QUANTITY: % Metabolized at 30 min Incubation with Human Liver Fractions/Enzymes rCYP1A2 (%)
Answers are plain numbers, in %.

For each of the molecules below, state % Metabolized at 30 min Incubation with Human Liver Fractions/Enzymes rCYP1A2.
1. CCCSc1ccc2nc(NC(=O)OC)[nH]c2c1 [Albendazole, albendazole, reference compound]
2. CC(C)(O)c1ccccc1CC[C@@H](SCC1(CC(=O)O)CC1)c1cccc(/C=C/c2ccc3ccc(Cl)cc3n2)c1 [Montelukast, montelukast, reference compound]
3. CSc1nc2cc(Cl)c(Oc3cccc(Cl)c3Cl)cc2[nH]1 [Triclabendazole, reference compound]
4. O=C1Cc2cc(CCN3CCN(c4nsc5ccccc45)CC3)c(Cl)cc2N1 [Ziprasidone, ziprasidone, reference compound]

# output
[98.92, 9.37, 97.14, 5.98]

Would you mind giving % Metabolized at 30 min Incubation with Human Liver Fractions/Enzymes rCYP1A2 for every molecule in the list below?
1. CNC(=O)O/N=C/C(C)(C)[S+](C)[O-] (centres unmarked) [Aldicarb sulfoxide, aldicarb sulfoxide]
2. CCOc1ccc(NC(C)=O)cc1
3. CNC(=O)Oc1cc(C)c(SC)c(C)c1
4. CNC(=O)O/N=C/C(C)(C)SC

# output
1: 0.00; 2: 91.43; 3: 46.94; 4: 0.00

* * *

Molecular target: rCYP2C9 (Homo sapiens)
Sequence (P11712 whole entry): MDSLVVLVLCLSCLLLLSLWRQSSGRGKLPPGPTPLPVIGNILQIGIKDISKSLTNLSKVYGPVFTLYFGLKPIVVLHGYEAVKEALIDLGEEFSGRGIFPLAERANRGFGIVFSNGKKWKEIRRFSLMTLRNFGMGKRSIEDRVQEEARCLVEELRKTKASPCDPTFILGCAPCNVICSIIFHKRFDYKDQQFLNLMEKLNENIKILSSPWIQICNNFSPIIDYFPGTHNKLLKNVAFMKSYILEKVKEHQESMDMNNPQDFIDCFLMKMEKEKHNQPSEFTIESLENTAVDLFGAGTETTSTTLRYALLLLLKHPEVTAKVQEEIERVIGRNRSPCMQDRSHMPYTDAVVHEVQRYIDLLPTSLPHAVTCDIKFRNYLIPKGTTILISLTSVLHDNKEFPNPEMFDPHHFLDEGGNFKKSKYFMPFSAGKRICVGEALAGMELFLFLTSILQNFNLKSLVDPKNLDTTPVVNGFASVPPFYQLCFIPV
Assay: Metabolic stability / reaction phenotyping with recombinant human CYP2C9
Conditions: human, recombinant human CYP2C9, 1 µM, pH 7.4
MEASURED QUANTITY: Predicted Microsomal Clint, CYP2C9 (µL/min/mg Protein)
One number for each entry, in µL/min/mg Protein.

{"MOLECULE": "CSc1nc2cc(Cl)c(Oc3cccc(Cl)c3Cl)cc2[nH]1 [Triclabendazole, reference compound]", "Predicted Microsomal Clint, CYP2C9 (µL/min/mg Protein)": 25.548}
{"MOLECULE": "CNC(=O)Oc1cc(C)c(SC)c(C)c1", "Predicted Microsomal Clint, CYP2C9 (µL/min/mg Protein)": 2.151}
{"MOLECULE": "CNC(=O)O/N=C/C(C)(C)SC", "Predicted Microsomal Clint, CYP2C9 (µL/min/mg Protein)": 2.298}
{"MOLECULE": "CC(C)(O)c1ccccc1CC[C@@H](SCC1(CC(=O)O)CC1)c1cccc(/C=C/c2ccc3ccc(Cl)cc3n2)c1 [Montelukast, montelukast, reference compound]", "Predicted Microsomal Clint, CYP2C9 (µL/min/mg Protein)": 3.675}

# next molecule below
# input Return reported Predicted Microsomal Clint, CYP2C9; argument: CCCSc1ccc2nc(NC(=O)OC)[nH]c2c1 [Albendazole, albendazole, reference compound]
# output 1.966
